Assay: Toxicity in brine shrimps larvae assessed as mortality at 10 ug/ml after 24 hrs
Format: organism-based
Conditions: artemia, brine shrimp larvae; read-out: Activity
value-type: mortality at 24 h, 10 ug/ml (%)
// note: answer is a bare numeric in %

Previously resolved entries follow.
- structure-smiles-string: "C[C@H]1C/C=C/[C@@H](O)[C@@H](O)CC/C=C/c2cc(O)cc(O)c2C(=O)O1"
  value-type: "mortality at 24 h, 10 ug/ml"
  units-symbol: "%"
  recorded-measurement: 76.7
- structure-smiles-string: "C[C@@H]1C[C@@H](O)/C=C\\[C@H](O)CCC(=O)Cc2c(Cl)c(O)cc(O)c2C(=O)O1"
  value-type: "mortality at 24 h, 10 ug/ml"
  units-symbol: "%"
  recorded-measurement: 82.8

Please look at the following molecule next.
Assign mortality at 24 h, 10 ug/ml to the following record: C[C@H](O)C/C=C/CCCCc1cc2cc(O)cc(O)c2c(=O)o1 78.2

Hey, just so you know, these numbers are from ChEMBL document CHEMBL1681773.
